# growth per record follows
- Tested on: RPMI-8226 leukemia
- assay.name: NCI-60 one-dose screen, 48 h (100 = growth as untreated, 0 = no growth, -100 = all killed)
- conditions: 10 µM unless noted
- Method: Growth inhibition of the RPMI-8226 human tumor cell line is measured as a screen for anti-cancer activity. Cells are grown in 96 well plates and exposed to the test compound for 48 hours. Compounds are tested at a single concentration, which is 10^-5 M for most compounds. The reported endpoint is percent growth (GI% or GIPRCNT), where numbers from 0 - 100% represent growth inhibition, and numbers from -100% - 0 represent cell death. For example, a value of 40 represents 60% growth inhibition. […]
The panel holds about 83,000 compounds, 20% with a hit somewhere; the sample as a whole holds those more often.
Unit % implied. Number only.

Solved cases (5 shown):
- structure.smiles.string: "CCCCNC(=O)Oc1ccc(/C(=C(\\C)c2ccc(Cl)cc2)c2ccc(OCCN(CC)CC)cc2)cc1"
  growth [%]: 63.9
- structure.smiles.string: "CC[C@H](C)C(=O)O[C@H]1CCC=C2C=C[C@H](C)[C@H](CC[C@@H]3CC=CC(=O)O3)[C@H]21"
  growth [%]: 0.207
- structure.smiles.string: "Cc1nc2ccccc2c(/C=C/c2ccc(Cl)cc2)c1C(=O)/C=C/c1cccs1"
  growth [%]: 53.4
- structure.smiles.string: "c1cc(-c2nnc(SSc3ncnc4nc[nH]c34)o2)ccn1"
  growth [%]: 16.1
- structure.smiles.string: "CCS(=O)(=O)c1ncnc2nc[nH]c12"
  growth [%]: 95.9

## Task Please provide the recorded growth for CN1CCN(Cc2ccc(NC(=O)c3cncc(C#Cc4cnccc4C#N)c3)cc2C(F)(F)F)CC1 , tested on RPMI-8226 leukemia.
## Result 34.1

## Task Please provide the recorded growth for CN1CCN(c2ccc(-c3ccc4ncc(C#N)c(Nc5ccc(F)c(Cl)c5)c4c3)cc2)CC1 , tested on RPMI-8226 leukemia.
## Result 4.87

## Task Please provide the recorded growth for NC(=O)Nc1ccc2ncnc(Nc3ccc(Cl)cc3)c2c1 , tested on RPMI-8226 leukemia.
## Result 101

----------
- Test system: SNB-75 CNS
- assay.name: NCI-60 one-dose screen, 48 h (100 = growth as untreated, 0 = no growth, -100 = all killed)
- conditions: 10 µM unless noted
The panel holds about 83,000 compounds, 20% with a hit somewhere; the sample as a whole holds those more often.
Entries are grouped by growth into these classes: low = under 50%, medium = from 50% up to 80%, high = 80% and over

Some solved cases for reference:
- compound: "CCOc1c(B(O)O)cccc1-c1nc2ccc3[nH]ncc3c2c2c1CCCC2"
  answer.label: "low"
- compound: "O=C(CCc1nnc(-c2c(Cl)cccc2Cl)o1)c1nc2ccccc2[nH]1"
  answer.label: "medium"

## Task Quick check: band for CSc1nc2ccc(C)cc2cc1/C=N/O
## Result medium

## Task Quick check: band for COc1cc(C(=O)N2N=C(c3ccc(S(C)(=O)=O)cc3)CC2c2ccco2)cc(OC)c1OC (configuration not stated)
## Result low

## Task Quick check: band for NCCOc1ncccc1/C=C1\C2C=CC=CC2C2C=CC(F)=CC12 (configuration not stated)
## Result low

## Task Quick check: band for O=C1/C(=C/c2ccc(F)cc2)Sc2c(Br)cccc21
## Result high

## Task Quick check: band for O=C(/C=C/c1sc(Cl)nc1Cl)c1ccccc1
## Result high

## Task Quick check: band for OC(COc1ccccc1Cl)CN1CCN(c2cccc(Cl)c2)CC1 (configuration not stated)
## Result high

## Task Quick check: band for COc1ccc2c(c1)nc(NNC(=O)c1cnccn1)c1cccn12
## Result medium
